# Test system: MCF7 cells
# Measurement Notes: MTT cell viability assay, MCF7
# Format: cell-based, human
# Experimental Parameters: MCF7, 48 h treatment
Observation Type: pIC50
FYI, pIC50 means -log10 of a concentration in mol per litre.

Request: Provide value of pIC50 for this record tested with MCF7 cells: COc1cc(/C=C/c2ccc(SC)cc2)cc(OC)c1OC [3,4,5-MTS]
Response: 5.68

---

# System: MCF7 cells
# Measurement Notes: MTT cell viability assay, MCF7
# Type: cell-based, human
# Experimental Parameters: Homo sapiens, MCF7, 48 h, MCF7, 48 h treatment
# Protocol: Spontaneously immortalized human keratinocyte HaCaT cells were purchased from Cell Lines Service (CLS, Eppelheim, Germany). Human epidermoid carcinoma A431 cells were obtained from Deutsche Sammlung von Mikroorganismen und Zellkulturen (DSMZ, Braunschweig, Germany). […] The effect of resveratrol and 4′-methylthiostilbenes on cell viability was assessed with MTT assay according to the standard protocol described earlier (Zielińska-Przyjemska et al. [2015]). […]
Assignment: determine reported pIC50 for the given compounds.
FYI, pIC50 means -log10 of a concentration in mol per litre.

Request: Tell me the measured pIC50 of Oc1ccc(/C=C/c2cc(O)cc(O)c2)cc1 [Resveratrol, trans-3,4′,5-trihydroxystilbene] , please.
Response: 4.61

Request: Tell me the measured pIC50 of `COc1cc(/C=C/c2ccc(SC)cc2)cc(OC)c1OC` , please.
Response: 5.68

Request: Tell me the measured pIC50 of `COc1ccc(OC)c(/C=C/c2ccc(SC)cc2)c1` , please.
Response: 4.99

Request: Tell me the measured pIC50 of `COc1cccc(/C=C/c2ccc(SC)cc2)c1OC` , please.
Response: 4.97

Request: Tell me the measured pIC50 of `COc1cc(/C=C/c2ccc(SC)cc2)cc(OC)c1` , please.
Response: 5.32

Request: Tell me the measured pIC50 of COc1ccccc1/C=C/c1ccc(SC)cc1 [2-Methoxy-4′-methylthio-trans-stilbene] , please.
Response: 4.56

Request: Tell me the measured pIC50 of `COc1cc(OC)c(OC)cc1/C=C/c1ccc(SC)cc1` , please.
Response: 5.29

Request: Tell me the measured pIC50 of COc1cccc(/C=C/c2ccc(SC)cc2)c1 [3-Methoxy-4′-methylthio-trans-stilbene] , please.
Response: 5.18

Just for reference, paper PMC6214853 is where these values come from.
